Entry source: PubChem BioAssay (NCI)

system: OVCAR-4 ovarian; assay: NCI tumour cell line growth inhibition, 48 h
value.kind: TGI

- O=C1c2[nH]c3ccc(Br)cc3c2CCN1Cc1ccc(Cl)cc1: 34.3 µM
- CC(SC(=S)N1CCOCC1)c1cc2oc(=O)n(C)c2cc1Cl (centres undefined): > 100 µM
- Ic1ccc2c(c1)N(c1ccccc1)c1cc(N=c3ccc4nc5ccc(I)cc5n(-c5ccccc5)c-4c3)ccc1N2: > 100 µM
- Nc1nc(I)nc2c1ncn2C1OC(COS(N)(=O)=O)C(O)C1O (centres undefined): < 0.0158 µM
- O=C1CSSCC(=O)Nc2ccccc2N1: > 100 µM
- COc1ccc2c(c1)-c1nc(=S)n(CCCN(C)C)c3ccc([N+](=O)[O-])c(c13)N2: 2.52 µM
- O=S(=O)(SC1=NCCN1)c1ccc2ccccc2c1: > 100 µM
- Cc1ccc(/C(Cl)=C/C=C(C#N)C#N)cc1: 8.74 µM
- N#CC12CNCC1CN=N2 (centres undefined): > 100 µM
- CCCCC(=O)c1ccc2ccccc2c1O: > 100 µM
- O=C(O)C(CS)Nc1c2ccccc2nc2ccccc12 (centres undefined): 47.1 µM
- O=c1oc2ccccc2cc1-c1csc(Nc2ccc(F)cc2)n1: > 36 µM
- CCc1ccccc1NC(=O)C1=C(C)NC(C)=C(C(=O)Nc2ccccc2CC)C1c1ccc2c(c1)OCO2: 92 µM
- CCOC(=O)c1cc2c([nH]1)c(O)cc1c2ccn1Cc1ccccc1: 35.4 µM
- O=C(Nc1ccncc1)C(=O)c1cn(S(=O)(=O)c2cccc(F)c2)c2ccccc12: > 100 µM
- CNC(=O)C1CCc2nnc(-c3ccccc3)n21 (centres undefined): > 100 µM
- Cc1cc(S(=O)(=O)Nc2nc(N)n(-c3ccccn3)n2)c(S)cc1Cl: > 100 µM
- COCCCNC(=O)C1C(=O)C(=O)N(CCCOC)C1=O (centres undefined): > 100 µM
- Nc1nccc(-c2c(-c3ccc(F)cc3)ncn2C2CCC(O)CC2)n1 (centres undefined): > 25 µM
- N#CC(C#N)=C1Nc2ccccc2S1: > 100 µM
- CCOC(=O)/C(=C\c1ccccc1)C(=O)O: > 100 µM
- Cc1nc(-c2cc3c(ccc4ccccc43)oc2=O)cs1: > 100 µM
- CCOC(=O)c1oc2cc3c(c4c2c1-c1ccccc1N4C)C=CC(C)(C)O3: > 100 µM
- CC(C)(C)OC(=O)CN1C(=O)CC1CC(=O)c1ccccc1 (centres undefined): > 100 µM

---

tested on: 786-0 renal; assay: NCI tumour cell line growth inhibition, 48 h
Listed here are compounds together with their documented TGI.
value.kind: TGI

• O=C1NC(=O)C(CCC(=O)c2ccc3ccccc3c2)C(=O)N1 = > 100 µM
• O=P1(O)c2ccccc2CCc2ccccc21 = > 100 µM
• CCC[CH2][Sn]1([CH2]CCC)[O]C(=O)CN=Cc2c(ccc3ccccc23)[O]1 = 1.81 µM
• COCCCNC(=O)C1C(=O)C(=O)N(CCCOC)C1=O (stereo unspecified) = > 100 µM
• O=C(Nc1ccc(-c2nc(N3CCOCC3)c3cccn3n2)cc1)Nc1cccnc1 = 1.98 µM
• c1ccc(-c2nc3ccccc3n3c(CN4CCCCC4)nnc23)cc1 = > 100 µM
• O=C(O)CCNC1CCCCC1 = > 100 µM
• CCC(C)(C)C1CCC2c3c([nH]c4ccccc34)C3C(=O)N(c4ccc(OC)cc4)C(=O)C3C2C1 (stereo unspecified) = 25.9 µM
• N#CC(C#N)=C1Nc2ccccc2S1 = > 100 µM
• C[C@@H]1OC(=O)N2CCCC(=C3SCCCS3)C12 (stereo partly specified) = > 100 µM
• CN1CCN(c2ccc3[nH]c(-c4cc(O)c5c(nc(CO)n5C)c4O)nc3n2)CC1 = > 100 µM

---

tested on: HCT-15 colon; assay: NCI tumour cell line growth inhibition, 48 h
value.kind: TGI

- O=C(Nc1ccncc1)C(=O)c1cn(S(=O)(=O)c2cccc(F)c2)c2ccccc12: > 100 µM
- CC(=O)c1sc2c(c1OC(=O)c1ccco1)c(=O)n(-c1ccccc1)c(=S)n2-c1ccccc1: 41.9 µM
- Cc1cc(N(CCC#N)CCC#N)ccc1/C=C1\N=C(c2cc([N+](=O)[O-])ccc2Cl)N(c2cccc(Cl)c2)C1=O: > 100 µM
- N#C/C(=C\c1ccc2ccccc2c1)c1ccccc1: > 100 µM
- CCCC1N2CCCCC2[C@@H]2c3[nH]c4ccccc4c3CCN12 (stereo not given in full): > 100 µM
- CCOC(=O)/C(=C\c1ccccc1)C(=O)O: > 100 µM
- CCOC1Oc2ccc(C)cc2C(=O)/C1=C\Nc1ccc(C(N)=O)cc1 (stereo not given): 30.6 µM
- Cc1cc(S(=O)(=O)Nc2nc(N)n(-c3ccccn3)n2)c(S)cc1Cl: > 100 µM
- COc1ccc2c(c1)C(=O)c1c-2n(CCCn2ccnc2)c(=O)c2cc([N+](=O)[O-])ccc12: > 100 µM
- CCN(CC)CCCC(C)Nc1c2ccc(Cl)cc2nc2ccc(O)cc12 (stereo not given): 11 µM

---

tested on: SK-MEL-28 melanoma; assay: NCI tumour cell line growth inhibition, 48 h
Listed here are molecules together with their documented TGI.
value.kind: TGI

• O=C1c2cccc([N+](=O)[O-])c2C(=O)N1c1ncn[nH]1 = > 100 µM
• CC(=O)Oc1cc(Cl)c(C)c2c1[C@H]1CC[C@]3(C)[C@@H](OC(C)=O)CC[C@H]3[C@@H]1CC2 = > 100 µM
• O=C1Nc2ccccc2C1(c1ccc(O)cc1)c1ccc(O)cc1 = 65.7 µM
• O=C(N/C(=C\c1cccc([N+](=O)[O-])c1)c1nc2ccc([N+](=O)[O-])cc2[nH]1)c1ccccc1 = > 100 µM
• O=[N+]([O-])c1ccc(C=NC2CCCCC2)cc1 = > 100 µM
• N#CC(C#N)=C1Nc2ccccc2S1 = 77.4 µM

---

tested on: OVCAR-8 ovarian; assay: NCI tumour cell line growth inhibition, 48 h; in the data active = GI50 below about 0.43 µM; inactive = the rest
Classes used: YES = active, NO = inactive

* NC(=O)NS(=O)(=O)c1ccc(N2N=C(C(F)(F)F)CC2c2cc(C(F)(F)F)cc(C(F)(F)F)c2)cc1 (centres undefined) | NO
* O=C(O)CCNC1CCCCC1 | NO
* Nc1nc(N(Cc2ccccc2)c2ccccc2)c2cn[nH]c2n1 | NO
* O=C1Nc2ccccc2C1(c1ccc(O)cc1)c1ccc(O)cc1 | YES
* Cc1ccc2c(c1)Sc1c(ccc3ccccc13)N2 | NO
* C#CCNC(=O)c1cccc2c1cc(C)n2-c1nc2c(c(NCc3ccccc3)n1)CCCC2 | YES
* O=C(CCc1nnc2sc(-c3ccc(Cl)cc3Cl)nn12)c1nc2ccccc2[nH]1 | NO
* COc1ccc2c(c1)CCCN2c1c2ccccc2nc2ccccc12 | NO
* CC/C=C\C[C@@H](O)C/C=C1/C(=O)C=C[C@H]1C/C=C\CCCC(=O)OC | NO
* O=C(Nc1ccncc1)C(=O)c1cn(S(=O)(=O)c2cccc(F)c2)c2ccccc12 | NO
* Cc1ccc(-c2nc3nc(-c4ccccc4)nc(N4CCCNCC4)c3o2)cc1 | NO
* COC(=O)Nc1nc2ccc(Oc3ccc(NC(=O)Nc4cc(C(F)(F)F)ccc4F)cc3)cc2s1 | NO
* CC1(C)OC2=C(CC1Br)C(=O)C(=O)c1ccccc12 (centres undefined) | NO
* Cc1ccc(C(=O)N(CCCN)C(c2oc3cc(Cl)ccc3c(=O)c2Cc2ccccc2)C(C)C)cc1 (centres undefined) | YES

---

system: OVCAR-5 ovarian; assay: NCI tumour cell line growth inhibition, 48 h
value.kind: TGI

* C/C(CC(=O)Nc1cc(C)ccc1C)=N\NC(=O)c1ccncc1 | > 100 µM
* OC1(c2ccc(Cl)cc2)C(N2CCCC2)c2ccccc2C2=NCCN21 (stereo unspecified) | > 100 µM
* O=C1c2ccccc2C(=O)c2c1cc(S(=O)(=O)O)c(O)c2O | > 100 µM
* COc1ccc(CC2CCc3nc(N)nc(N)c3C2)cc1OC (stereo unspecified) | > 100 µM
* CC(C)(C)C(=O)OCOP(=O)(OCOC(=O)C(C)(C)C)OCC1OC(n2ccc(=O)[nH]c2=O)C(N=[N+]=[N-])C1O (stereo unspecified) | 16.1 µM
* O=c1[nH]nc(-c2ccccc2)n1/N=C/c1ccc([N+](=O)[O-])cc1 | > 100 µM
* CN(CCC(=O)O)C1=Nc2ccc(Cl)cc2C(c2ccccc2)=[N+]([O-])C1 | > 100 µM
* CCOC(=S)SSSC(=S)OCC | 86.6 µM
* COc1ccc2c(c1)C(=O)Cc1ccccc1CC2 | > 100 µM
* COc1ccc(C(=O)c2sc(N(C)C)nc2-c2ccccc2)cc1 | > 100 µM
* O=c1[nH]c(=O)n(CCOc2ccccc2)cc1Nc1ccccc1 | > 100 µM
